# STUDY_TARGET: human GLP-1 receptor (human, UniProt P43220 24-463)
# TEST_DETAILS: cell-based or functional assay
Starred links: 1 amine or outer side, 2 acyl side, 3 side chain; linkers in the order of their positions; H or OH if unused. Non-standard residues stand in square brackets, D forms with d. Groups on a side chain read outwards from the residue. *: point of attachment. Butyryl(4-SO2NHCO(CH2)16Tz) = O=C(CCCCCCCCCCCCCCCCc1nnn[nH]1)NS(=O)(=O)CCCC(=O)*; C18 diacid = O=C(O)CCCCCCCCCCCCCCCCC(=O)*; C16 diacid = O=C(O)CCCCCCCCCCCCCCC(=O)*; γGlu = O=C(O)[C@H](CCC(=O)[*:2])N[*:1]; AEEA = NCCOCCOCC(=O)O; Aib = CC(C)(N)C(=O)O
Given measured Human GLP-1R potency [EC50 (pM)], output 1 if it is greater than or equal to 20 pM and -1 if not.

Query: Dear colleague, could you confirm whether Compound 0075 (peptide) peptide: H[Aib]EGTFTSDVSSYLEGQAAK([AEEA-AEEA-γGlu-C16 diacid])EFIAWLVRGK([AEEA-AEEA-γGlu-C16 diacid])GGGEASELSTAALGRLSAELHELATLPRTETGSGSP-NH2 has Human GLP-1R potency [EC50 (pM)] at or above 20 pM?
Reply: 1

Query: Dear colleague, could you confirm whether Compound 0281 (peptide) peptide: H[Aib]EGTFTSDVSSYLEEQAAREFIAWLVRGK([AEEA-AEEA-γGlu-C16 diacid])GGGGGEASELSTAALGRLSAELHELK([AEEA-AEEA-γGlu-C16 diacid])TLPRTETGSGSP-NH2 has Human GLP-1R potency [EC50 (pM)] at or above 20 pM?
Reply: 1

Query: Dear colleague, could you confirm whether Compound 0147 (peptide) peptide: H[Aib]EGTFTSDVSSYLEEQAAREFIEWLVRGK(Butyryl(4-SO2NHCO(CH2)16Tz))ASELSTAALGRLSAELHELATLPRTETGSGSP-NH2 has Human GLP-1R potency [EC50 (pM)] at or above 20 pM?
Reply: 1

Query: Dear colleague, could you confirm whether Compound 0396 (peptide) peptide: H[Aib]EGTFTSDVSSYLEEK([AEEA-AEEA-γGlu-C16 diacid])AAREFIAWLVRGRGGGGGEASELSTAALGRLSAELHELK([AEEA-AEEA-γGlu-C16 diacid])TLPRTETGSGSP-NH2 has Human GLP-1R potency [EC50 (pM)] at or above 20 pM?
Reply: -1

Query: Dear colleague, could you confirm whether Compound 0084 (peptide) peptide: H[Aib]EGTFTSDVSSYLEGQAAREFIAWLVRGRGQEPK([AEEA-AEEA-γGlu-C18 diacid])GQAPEASELSTAALGRLSAELHELATLPRTETGSGSP-NH2 has Human GLP-1R potency [EC50 (pM)] at or above 20 pM?
Reply: -1

Query: Dear colleague, could you confirm whether Compound 0087 (peptide) peptide: HGEGTFTSDVSSYLEEQAARK([AEEA-AEEA-γGlu-C16 diacid])FIEWLVRGK([AEEA-AEEA-γGlu-C16 diacid])GEGGEASELSTAALGRLSAELHELATLPRTETGSGSP-NH2 has Human GLP-1R potency [EC50 (pM)] at or above 20 pM?
Reply: 1

Query: Dear colleague, could you confirm whether Compound 0105 (peptide) peptide: H[Aib]EGTFTSDVSSYLEEQAARK([AEEA-AEEA-γGlu-C16 diacid])FIEWLVRGK([AEEA-AEEA-γGlu-C16 diacid])GEGQEPGGASELSTAALGRLSAELHELATLPRTETGSGSP-NH2 has Human GLP-1R potency [EC50 (pM)] at or above 20 pM?
Reply: -1

Query: Dear colleague, could you confirm whether Compound 0160 (peptide) peptide: H[Aib]EGTFTSDVSSYLEEQAARK([γGlu-C18 diacid])FIAWLVRGRGGGGGGGGK([γGlu-C18 diacid])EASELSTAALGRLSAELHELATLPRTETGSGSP-NH2 has Human GLP-1R potency [EC50 (pM)] at or above 20 pM?
Reply: -1
